- run_description: Half life in human plasma at 20 mg/day, po
- Assay type: ADME, organism-based
property_name: half-life

In: Consider the molecule Cl.Clc1ccc(CCCOCCCN2CCCCC2)cc1 [PITOLISANT HYDROCHLORIDE] and give its recorded half-life.
Out: 10 to 12 h
